- STUDY SYSTEM: JAK2 (Homo sapiens)
- Construct: host or cells: baculovirus expression system
- Sequence (O60674 whole entry): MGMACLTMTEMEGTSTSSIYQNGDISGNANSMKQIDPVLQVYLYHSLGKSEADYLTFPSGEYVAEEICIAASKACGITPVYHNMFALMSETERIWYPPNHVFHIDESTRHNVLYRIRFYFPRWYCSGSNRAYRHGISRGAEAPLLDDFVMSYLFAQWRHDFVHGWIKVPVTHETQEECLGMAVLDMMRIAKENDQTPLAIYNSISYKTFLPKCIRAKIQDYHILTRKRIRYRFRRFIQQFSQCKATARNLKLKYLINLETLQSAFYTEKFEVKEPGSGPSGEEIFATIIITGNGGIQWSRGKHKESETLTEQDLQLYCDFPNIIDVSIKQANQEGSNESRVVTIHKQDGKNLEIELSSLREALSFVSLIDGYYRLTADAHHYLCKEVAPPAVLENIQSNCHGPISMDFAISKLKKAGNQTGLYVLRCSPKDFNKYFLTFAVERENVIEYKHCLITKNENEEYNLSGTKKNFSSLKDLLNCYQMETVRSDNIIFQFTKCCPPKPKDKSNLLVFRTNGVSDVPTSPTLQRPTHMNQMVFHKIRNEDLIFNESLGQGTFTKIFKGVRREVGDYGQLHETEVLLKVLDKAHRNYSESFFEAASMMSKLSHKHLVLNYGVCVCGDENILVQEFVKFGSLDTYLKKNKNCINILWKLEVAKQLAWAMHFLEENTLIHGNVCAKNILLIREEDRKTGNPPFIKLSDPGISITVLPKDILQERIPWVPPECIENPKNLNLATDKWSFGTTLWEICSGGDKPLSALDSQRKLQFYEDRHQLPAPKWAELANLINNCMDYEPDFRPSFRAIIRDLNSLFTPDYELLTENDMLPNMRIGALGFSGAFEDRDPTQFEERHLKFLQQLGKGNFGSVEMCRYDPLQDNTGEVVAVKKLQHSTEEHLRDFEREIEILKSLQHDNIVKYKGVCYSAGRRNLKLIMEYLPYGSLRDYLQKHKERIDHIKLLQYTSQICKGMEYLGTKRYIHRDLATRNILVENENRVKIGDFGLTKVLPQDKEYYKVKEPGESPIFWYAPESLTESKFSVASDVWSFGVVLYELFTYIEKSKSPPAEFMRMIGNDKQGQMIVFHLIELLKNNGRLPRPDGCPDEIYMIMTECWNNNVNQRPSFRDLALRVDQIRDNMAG
- ASSAY COMMENT: Recombinant Human JAK2 Kinase Assay (TRF)
- Type: biochemical
- CONDITION SUMMARY: JAK2 kinase inhibition, 0.2 μM ATP; read-out: JAK2 Potency
QUANTITY MEASURED: IC50

CC(C)(C)NS(=O)(=O)c1cccc(-c2ccc3cnc(Nc4ccc5ncn(CCN6CCOCC6)c5c4)nn23)c1	< 100 nM

Exercise: Give the measured IC50 of COc1ccc(-c2ccc3cnc(Nc4cccc(NC(=O)CN(C)C)c4)nn23)cn1 .
Solution: < 100 nM

Exercise: Request the reported IC50 associated with CN(c1ccccc1-c1ccc2cnc(Nc3ccc4c(cnn4C)c3)nn12)S(C)(=O)=O
Solution: < 100 nM

Exercise: Recorded IC50 of COc1ccc(-c2ccc3cnc(Nc4ccc(CN5CCN(C)CC5)cc4)nn23)cn1 , please.
Solution: < 100 nM

Exercise: So what's the measured IC50 for this one? NC(=O)CN1CCC(c2ccc(Nc3ncc4ccc(-c5cccc6cccnc56)n4n3)cc2)CC1
Solution: < 100 nM

Exercise: Query: IC50; subject: COc1cc(N2CCC(N(C)C)C2)ccc1Nc1ncc2ccc(-c3ccccc3OC)n2n1 (stereo not shown)
Solution: < 100 nM

Exercise: Could you tell me which IC50 is on file for COc1cc(N(C)C(=O)CN2CCOCC2)ccc1Nc1ncc2ccc(-c3ccccc3OC)n2n1 ?
Solution: 100 to 1000 nM

Exercise: Query (compound): COc1cc(N2CCCN(C[C@@H](C)O)CC2)ccc1Nc1ncc2ccc(-c3ccccc3OC)n2n1 ; field requested: IC50
Solution: < 100 nM

Exercise: Returns the measured IC50 for the input compound. Input: CN1CCN(c2ccc(Nc3ncc4ccc(C5=CCN(C(=O)OC(C)(C)C)CC5)n4n3)cc2)CC1
Solution: < 100 nM

Exercise: Given the compound N#CCCc1cccc(-c2ccc3cnc(Nc4ccc(N5CCN(CCO)CC5)cc4)nn23)c1 , what is its reported IC50?
Solution: < 100 nM

Exercise: Any idea what its IC50 is? The compound is COc1ccc(-c2ccc3cnc(Nc4ccc(C5CCN(CC(N)=O)CC5)c(OC)c4)nn23)cn1
Solution: < 100 nM

Exercise: May I ask what IC50 has been recorded for COc1cc([C@]2(C#N)CC[C@H](N3CCOCC3)CC2)ccc1Nc1ncc2ccc(-c3ccccc3N(C)S(C)(=O)=O)n2n1 ?
Solution: 100 to 1000 nM

Exercise: // lookup IC50 for COc1cc(C2CCN(C)CC2OC)ccc1Nc1ncc2ccc(-c3ccccc3OC)n2n1 (racemic)
Solution: < 100 nM

Exercise: Looking for the measured IC50 of CN1C(=O)COc2cc(Nc3ncc4ccc(-c5cccnc5)n4n3)ccc21 , can you help?
Solution: < 100 nM

Exercise: Name the reported IC50 value associated with the compound COc1ccc(CN2CCOCC2)cc1Nc1ncc2ccc(-c3ccccc3N(C)S(C)(=O)=O)n2n1
Solution: 1000 to 10000 nM

Exercise: I have this compound here, CN(C)CC(=O)Nc1cccc(Nc2ncc3ccc(-c4cccc(S(=O)(=O)NC(C)(C)C)c4)n3n2)c1 , and I need its recorded IC50.
Solution: < 100 nM
